# testName: Stability in simulated intestinal fluid
# Type: in vitro ADME
# conditionSummary: 2 μM, 37° C., pH 7.5, 24 h
Where a SMILES comes first, the peptide text is derived from it. [ ]: non-standard residue; d: D form. ξ: configuration not given here. ξαMeBip(2'-Et,4'-OMe) = CCc1cc(OC)ccc1-c1ccc(CC(C)(N)C(=O)O)cc1; ξαMePhe(2,6-F2) = CC(N)(Cc1c(F)cccc1F)C(=O)O; ξαMe(hhPhe) = CC(N)(CCCc1ccccc1)C(=O)O; ξαMeP = CC1(C(=O)O)CCCN1; ξαMeS = CC(N)(CO)C(=O)O
This listing pairs compounds with measured % degradation in 24 h when incubated with simulated intestinal fluid.
assayEndpoint: % degradation in 24 h when incubated with simulated intestinal fluid (%)

• CCc1cc(OC)ccc1-c1ccc(CC(C)(NC(=O)[C@H](CC(=O)O)NC(=O)[C@H](CO)NC(=O)[C@@H](NC(=O)[C@H](Cc2ccccc2)NC(=O)[C@@H](NC(=O)CNC(=O)[C@H](CCC(=O)O)NC(=O)C2(C)CCCN2C(=O)[C@H](Cc2c[nH]cn2)NC(=O)[C@@H](N)C(C)C)[C@@H](C)O)[C@@H](C)O)C(=O)NC(C)(CCCc2ccccc2)C(N)=O)cc1 (some centres unmarked) [compound 140] (H-VH[ξαMeP]EGTFTSD[ξαMeBip(2'-Et,4'-OMe)][ξαMe(hhPhe)]-NH2) = 100
• CCc1cc(OC)ccc1-c1ccc(CC(C)(NC(=O)[C@H](CC(=O)O)NC(=O)C(C)(CO)NC(=O)[C@@H](NC(=O)C(C)(Cc2c(F)cccc2F)NC(=O)[C@@H](NC(=O)CNC(=O)[C@H](CCC(=O)O)NC(=O)[C@H](C)NC(=O)[C@H](Cc2c[nH]cn2)NC(=O)[C@@H](N)C(C)C)[C@@H](C)O)[C@@H](C)O)C(=O)NC(C)(CCCc2ccccc2)C(N)=O)cc1 (some centres unmarked) [compound 178] (H-VHAEGT[ξαMePhe(2,6-F2)]T[ξαMeS]D[ξαMeBip(2'-Et,4'-OMe)][ξαMe(hhPhe)]-NH2) = 00

* * *

# testName: Stability in human plasma
# Type: in vitro ADME
# conditionSummary: 2 μM, 37° C., 24 h
Where a SMILES comes first, the peptide text is derived from it. [ ]: non-standard residue; d: D form. ξ: configuration not given here. ξαMeBip(2'-Et,4'-OMe) = CCc1cc(OC)ccc1-c1ccc(CC(C)(N)C(=O)O)cc1; ξBip(2'-Et-4'-OMe) = CCc1cc(OC)ccc1-c1ccc(CC(N)C(=O)O)cc1; ξαMePhe(2,6-F2) = CC(N)(Cc1c(F)cccc1F)C(=O)O; ξαMe(hhPhe) = CC(N)(CCCc1ccccc1)C(=O)O; ξhhPhe = NC(CCCc1ccccc1)C(=O)O; ξαMeD = CC(N)(CC(=O)O)C(=O)O; ξαMeS = CC(N)(CO)C(=O)O; Aib = CC(C)(N)C(=O)O
assayEndpoint: % degradation in 24 h when incubated with human plasma (%)

- CCc1cc(OC)ccc1-c1ccc(CC(C)(NC(=O)[C@H](CC(=O)O)NC(=O)C(C)(CO)NC(=O)[C@@H](NC(=O)C(C)(Cc2c(F)cccc2F)NC(=O)[C@@H](NC(=O)CNC(=O)[C@H](CCC(N)=O)NC(=O)[C@H](C)NC(=O)[C@H](Cc2c[nH]cn2)NC(=O)[C@@H](N)C(C)C)[C@@H](C)O)[C@@H](C)O)C(=O)NC(CCCc2ccccc2)C(N)=O)cc1 (some centres unmarked) [compound 50] (H-VHAQGT[ξαMePhe(2,6-F2)]T[ξαMeS]D[ξαMeBip(2'-Et,4'-OMe)][ξhhPhe]-NH2): 77
- CCc1cc(OC)ccc1-c1ccc(CC(C)(NC(=O)C(C)(CC(=O)O)NC(=O)[C@H](CO)NC(=O)[C@@H](NC(=O)[C@H](Cc2ccccc2)NC(=O)[C@@H](NC(=O)CNC(=O)[C@H](CCC(=O)O)NC(=O)[C@H](C)NC(=O)[C@H](Cc2c[nH]cn2)NC(=O)[C@@H](N)C(C)C)[C@@H](C)O)[C@@H](C)O)C(=O)NC(CCCc2ccccc2)C(N)=O)cc1 (some centres unmarked) [compound 62] (H-VHAEGTFTS[ξαMeD][ξαMeBip(2'-Et,4'-OMe)][ξhhPhe]-NH2): 00
- CCc1cc(OC)ccc1-c1ccc(CC(NC(=O)C(C)(CC(=O)O)NC(=O)C(C)(CO)NC(=O)[C@@H](NC(=O)[C@H](Cc2ccccc2)NC(=O)[C@@H](NC(=O)CNC(=O)[C@H](CCC(=O)O)NC(=O)[C@H](C)NC(=O)[C@H](Cc2c[nH]cn2)NC(=O)[C@@H](N)C(C)C)[C@@H](C)O)[C@@H](C)O)C(=O)NC(C)(CCCc2ccccc2)C(N)=O)cc1 (some centres unmarked) [compound 112] (H-VHAEGTFT[ξαMeS][ξαMeD][ξBip(2'-Et-4'-OMe)][ξαMe(hhPhe)]-NH2): 71
- CCc1cc(OC)ccc1-c1ccc(CC(C)(NC(=O)C(C)(CC(=O)O)NC(=O)[C@H](CO)NC(=O)[C@@H](NC(=O)C(C)(Cc2c(F)cccc2F)NC(=O)[C@@H](NC(=O)CNC(=O)[C@H](CCC(N)=O)NC(=O)C(C)(C)NC(=O)[C@H](Cc2c[nH]cn2)NC(=O)[C@@H](N)C(C)C)[C@@H](C)O)[C@@H](C)O)C(=O)NC(CCCc2ccccc2)C(N)=O)cc1 (some centres unmarked) [compound 75] (H-VH[Aib]QGT[ξαMePhe(2,6-F2)]TS[ξαMeD][ξαMeBip(2'-Et,4'-OMe)][ξhhPhe]-NH2): 75
- CCc1cc(OC)ccc1-c1ccc(CC(C)(NC(=O)[C@H](CC(=O)O)NC(=O)[C@H](CO)NC(=O)[C@@H](NC(=O)[C@H](Cc2ccccc2)NC(=O)[C@@H](NC(=O)CNC(=O)[C@H](CCC(N)=O)NC(=O)[C@H](CO)NC(=O)[C@H](Cc2c[nH]cn2)NC(=O)[C@@H](NC(=O)[C@@H](N)C(C)C)C(C)C)[C@@H](C)O)[C@@H](C)O)C(=O)NC(CCCc2ccccc2)C(N)=O)cc1 (some centres unmarked) [compound 205] (H-VVHSQGTFTSD[ξαMeBip(2'-Et,4'-OMe)][ξhhPhe]-NH2): 00
